src = PubChem BioAssay AID1259407

Test system: CCRIS mutagenicity, Ames/micronucleus/aberration tests
Assay: CCRIS mutagenicity studies
Settings: Test System: AMES SALMONELLA TYPHIMURIUM; Strain/Indicator: TA100; Metabolic Activation: NONE; Method: STANDARD PLATE
Activity calls are given as the source filed them. How the calls were made is not given here.
quantity.kind: mutagenic call

Below: 6 compounds and their reported mutagenic call.
| compound | quantity.kind | recorded.measurement |
| --- | --- | --- |
| CC[C@@H](CO)NCCN[C@@H](CC)CO | mutagenic call | inactive; negative |
| Nc1nc(Cl)cc(Cl)n1 | mutagenic call | inactive; negative |
| O=CC=O | mutagenic call | active; positive |
| c1ccc(C2CO2)cc1 (stereo not drawn) | mutagenic call | active; positive |
| N=C(N)c1cc2ccc(Br)cc2[nH]1 | mutagenic call | inactive; negative |
| O=C(Cl)OCc1ccccc1 | mutagenic call | inactive; negative |

Read off the recorded mutagenic call for CC(C)(C)c1cc(-c2ccccc2)ccc1N=O active; positive

Read off the recorded mutagenic call for C1=CC2=C3OC3c3cc4c(cc3C2C=C1)c1c(c2ccccc24)O1 (stereo not drawn) active; positive

Read off the recorded mutagenic call for Nc1ccc(S(=O)(=O)Nc2nccs2)cc1 inactive; negative

Read off the recorded mutagenic call for COc1ccc2nc3cc(Cl)ccc3c(NCCCNCCCl)c2c1 active; positive

Read off the recorded mutagenic call for C=C[Si](C)(C)N[Si](C)(C)C=C inactive; negative

Read off the recorded mutagenic call for Cc1cc(N)c(C)c([N+](=O)[O-])c1N inactive; negative
